test system: Human betaherpesvirus 5; assay: Antiviral activity against ganciclovir-resistant HCMV with DNA polymerase mutant in HEL cells assessed as reduction of virus-induced cytopathogenicity; assay type: functional, organism-based; details: Human betaherpesvirus 5, HEL
quantity: EC50

Examples with answers:
Cc1cn([C@@H]2O[C@H](CO[Si](C)(C)C(C)(C)C(C)C)[C@@]3(OS(=O)(=O)C=C3NC(=O)NC(=O)c3ccccc3)[C@H]2O[Si](C)(C)C(C)(C)C(C)C)c(=O)n(C)c1=O
3.3 µg/mL
Cc1cn([C@@H]2O[C@H](CO[Si](C)(C)C(C)(C)C(C)C)[C@@]3(OS(=O)(=O)C=C3NC(=O)NC(=O)c3ccccc3)[C@H]2O[Si](C)(C)C(C)(C)C)c(=O)n(C)c1=O
0.9 µg/mL

// query EC50 value for entry `Nc1ncnc2c1ncn2C[C@@H](CO)OCP(=O)(O)O` 2 µg/mL

====

assay: Cytotoxicity against HEL cells assessed as reduction in cell growth after 3 days; assay type: cell-based; conditions: human
Field: label. Allowed values: t (CC50 at 72 h < 10 µM) or f (CC50 at 72 h >= 10 µM).

Example entries begin here.
CCOC(=O)CNC(=O)NC1=CS(=O)(=O)O[C@@]12[C@@H](CO[Si](C)(C)C(C)(C)C)O[C@@H](n1cc(C)c(=O)n(C)c1=O)[C@@H]2O[Si](C)(C)C(C)(C)C
f
Cc1cn([C@@H]2O[C@H](CO[Si](C)(C)C(C)(C)C)[C@@]3(OS(=O)(=O)C=C3NC(N)=O)[C@H]2O[Si](C)(C)C(C)(C)C)c(=O)n(C)c1=O
f
Cc1cn([C@@H]2O[C@H](CO[Si](C)(C)C(C)(C)C)[C@@]3(OS(=O)(=O)C=C3NC(=O)Nc3ccccc3)[C@H]2O[Si](C)(C)C(C)(C)C)c(=O)n(C)c1=O
t

Field: below-cutoff. Rule: recorded CC50 at 72 h strictly less than 10 µM. Subject: `Cc1cn([C@@H]2O[C@H](CO)[C@@]3(OS(=O)(=O)C=C3NC(=O)NC(=O)c3ccccc3)[C@H]2O[Si](C)(C)C(C)(C)C)c(=O)n(C)c1=O` f

Field: below-cutoff. Rule: recorded CC50 at 72 h strictly less than 10 µM. Subject: `Cc1cn([C@@H]2O[C@H](CO[Si](C)(C)C(C)(C)C)[C@@]3(OS(=O)(=O)C=C3NC(=O)NC(=O)c3ccccc3)[C@H]2O[Si](C)(C)C(C)(C)C)c(=O)n(C)c1=O` f

====

Let's look at some compounds and their measured CC50 at 72 h.
assay: Cytotoxicity against HEL cells assessed as reduction in cell growth after 3 days; format: cell-based; settings: human

Examples with answers:
CC(=O)N[C@@H]1O[C@H](CO[Si](C)(C)C(C)(C)C)[C@@]2(OS(=O)(=O)C=C2NC(=O)NC(=O)c2ccccc2)[C@H]1O[Si](C)(C)C(C)(C)C
> 100 µM
Cc1cn([C@@H]2O[C@H](COCc3ccccc3)[C@@]3(OS(=O)(=O)C=C3NC(=O)NC(=O)c3ccccc3)[C@H]2O[Si](C)(C)C(C)(C)C)c(=O)n(C)c1=O
> 50 µM

// next item, CC50 at 72 h requested
// query CC50 at 72 h value for entry `Cc1cn([C@@H]2O[C@H](CO[Si](C)(C)C(C)(C)C(C)C)[C@@]3(OS(=O)(=O)C=C3NC(=O)NC(=O)c3ccccc3)[C@H]2O[Si](C)(C)C(C)(C)C(C)C)c(=O)n(C)c1=O` > 50 µM
